tested on: AREc32 cells; test: Cytotoxicity against reporter cells (MTT); format: cell-based
parameter: Cytotoxicity: no toxicity until concentration (µM)
All answers are understood in µM, so give the number only.

State the recorded Cytotoxicity: no toxicity until concentration for this entry: C#CCCOc1ccc(C2NC(=S)N(CCC3CCN(Cc4ccccc4)CC3)C(C)=C2C(=O)OCC)cc1 (stereo not shown) 100

Try this molecule too: C#CCOc1ccc(C2NC(=S)N(CCC3CCN(Cc4ccccc4)CC3)C(C)=C2C(=O)OCC)cc1 (stereo not shown) 50

Try this molecule too: C#CCOc1ccc(C2NC(=O)N(CCC3CCN(Cc4ccccc4)CC3)C(C)=C2C(=O)OCC)cc1 (stereo not shown) 50

Try this molecule too: C#CCCOc1ccc(C2NC(=O)N(CCC3CCN(Cc4ccccc4)CC3)C(C)=C2C(=O)OCC)cc1 (stereo not shown) 50

====

Target or system hAChE (AChE from human erythrocytes) (Homo sapiens); recorded quantity IC50.
All answers are understood in µM, so give the number only.

Example entries and their recorded answers appear below.
1. C#CCCOc1ccc(C2NC(=O)N(CCC3CCN(Cc4ccccc4)CC3)C(C)=C2C(=O)OCC)cc1 (centres unmarked)	0.462
2. C#CCOc1ccc(C2NC(=S)N(CCC3CCN(Cc4ccccc4)CC3)C(C)=C2C(=O)OCC)cc1 (centres unmarked)	0.352
3. C#CCOc1ccc(C2NC(=O)N(CCC3CCN(Cc4ccccc4)CC3)C(C)=C2C(=O)OCC)cc1 (centres unmarked)	0.342

# ---- query compound ----
State the recorded IC50 for this entry: C#CCCOc1ccc(C2NC(=S)N(CCC3CCN(Cc4ccccc4)CC3)C(C)=C2C(=O)OCC)cc1 (centres unmarked) 1.27

====

Target or system hAChE (AChE from human erythrocytes) (Homo sapiens); recorded quantity IC50.

1. C#CCCOc1ccc(C2NC(=S)N(CC3CCN(Cc4ccccc4)CC3)C(C)=C2C(=O)OCC)cc1 (stereo not shown)	> 1000 nM
2. C#CCOc1ccc(C2NC(=O)N(CC3CCN(Cc4ccccc4)CC3)C(C)=C2C(=O)OCC)cc1 (stereo not shown)	> 1000 nM
3. C#CCOc1ccc(C2NC(=S)N(CC3CCN(Cc4ccccc4)CC3)C(C)=C2C(=O)OCC)cc1 (stereo not shown)	> 1000 nM

# ---- query compound ----
Form: Entry = C#CCCOc1ccc(C2NC(=O)N(CC3CCN(Cc4ccccc4)CC3)C(C)=C2C(=O)OCC)cc1 (stereo not shown) | System = hAChE (AChE from human erythrocytes) (Homo sapiens) | IC50 = ____ > 1000 nM
